Measured kon values are reported for all entries that follow.
target: Human BCMA (human) (UniProt Q02223); experiment: SPR, IgG immobilised, huBCMA analyte, 37 C
I only need the number, in M⁻¹ s⁻¹, no unit after it.

Examples from the recorded data:
L3.PY/L3.KY/H2.LT (antibody, V domains shown, IgG) VH: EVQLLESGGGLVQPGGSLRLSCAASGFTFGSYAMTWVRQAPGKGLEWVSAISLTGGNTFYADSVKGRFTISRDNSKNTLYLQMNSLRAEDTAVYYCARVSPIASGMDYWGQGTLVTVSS VL: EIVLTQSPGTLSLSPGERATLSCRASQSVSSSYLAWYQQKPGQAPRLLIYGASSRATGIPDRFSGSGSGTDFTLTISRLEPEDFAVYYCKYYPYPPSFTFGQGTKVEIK : 2.92e+06
L3.PY/L1.FF/H2.YQ (antibody, V domains shown, IgG) VH: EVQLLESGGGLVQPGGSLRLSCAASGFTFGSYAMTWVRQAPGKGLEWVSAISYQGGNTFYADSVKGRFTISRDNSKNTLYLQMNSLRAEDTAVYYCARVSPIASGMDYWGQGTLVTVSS VL: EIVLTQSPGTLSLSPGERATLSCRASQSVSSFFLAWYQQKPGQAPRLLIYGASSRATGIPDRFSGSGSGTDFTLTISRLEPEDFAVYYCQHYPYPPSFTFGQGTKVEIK : 3.32e+06
L3.PY/L1.FF/H2.DY (antibody, V domains shown, IgG) VH: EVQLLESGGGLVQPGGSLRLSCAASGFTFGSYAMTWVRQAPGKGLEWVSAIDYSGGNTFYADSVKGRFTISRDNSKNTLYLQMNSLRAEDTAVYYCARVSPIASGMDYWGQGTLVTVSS VL: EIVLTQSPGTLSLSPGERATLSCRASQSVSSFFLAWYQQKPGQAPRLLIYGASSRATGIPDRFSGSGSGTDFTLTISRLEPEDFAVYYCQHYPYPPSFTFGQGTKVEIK : 4.14e+06

Record summary for L3.PY/L3.KF/H3.TAQ (antibody, V domains shown, IgG) VH: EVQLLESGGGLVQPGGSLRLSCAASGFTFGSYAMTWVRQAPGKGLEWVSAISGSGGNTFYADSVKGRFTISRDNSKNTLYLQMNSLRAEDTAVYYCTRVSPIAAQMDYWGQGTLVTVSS VL: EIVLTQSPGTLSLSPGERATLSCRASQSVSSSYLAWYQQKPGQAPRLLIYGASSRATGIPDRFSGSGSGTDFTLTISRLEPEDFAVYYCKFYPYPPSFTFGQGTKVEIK : reported kon = 2.82e+06

// recorded kon for L3.PY/L1.PH/H3.TAQ (antibody, V domains shown, IgG) VH: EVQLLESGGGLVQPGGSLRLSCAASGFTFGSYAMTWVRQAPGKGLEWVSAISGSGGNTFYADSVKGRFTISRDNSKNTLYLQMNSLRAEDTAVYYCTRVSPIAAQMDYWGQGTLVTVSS VL: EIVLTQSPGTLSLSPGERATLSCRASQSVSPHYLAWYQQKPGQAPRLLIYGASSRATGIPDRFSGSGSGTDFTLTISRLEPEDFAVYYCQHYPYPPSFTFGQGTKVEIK : 3.58e+06
